- Test system: H3K9me2 in HCT116 cells
- Test: HCT116 H3K9me2 in-cell western assay
- Format: cell-based
- Test settings: Homo sapiens, HCT-116, 72 h, HCT116 cells, 72 hours incubation; read-out: H3K9me2 ICW IC50
- Experimental: HCT116 cell line was purchased from ATCC (Manassas, VA, USA). […] Penicillin-Streptomycin and heat inactivated fetal bovine serum were purchased from Hyclone (Logan, UT, USA). DPBS, Corning^R were purchased from VWR (Radnor, PA, USA). […] The average of the ratio values (800 nm/700 nm) for each well was calculated and used to determine the percentage for each test well in the plate. […] IC50 values were calculated using a non-linear regression of Prism.
Collected IC50 values appear next to each entry.

[
  {
    "Molecule": "CNc1cc(C)nc(Nc2cc3c(c(C4=CCNCCC4)c2F)OCC3)c1 [Compound 328]",
    "IC50": "< 100 nM"
  }
]

We next turn to a different molecule, shown below.
Prompt: Value lookup for IC50; key = CCNc1nc(Nc2cc3c(c(C4=CCN(C)CCC4)c2F)OCC3)nc(C)c1F [Compound 241]
Completion: 100 to 500 nM

These data points were gathered from patent US20240368139A1.
